tested on: Mycobacterium tuberculosis; assay: Antitubercular activity against dormant Mycobacterium tuberculosis H37Ra after 12 days by XTT-Menadione assay; type: functional, organism-based; conditions: 288 h
MEASURED ENDPOINT: MIC (µg/mL)
Reply with just the number (in µg/mL).

Give reported MIC value for COc1ccc([C@H]2SCC(=O)N2NC(=O)c2nccnc2N)cc1OC
25.8

Give reported MIC value for Cc1cnc(C(=O)NN2C(=O)CS[C@@H]2c2ccc([N+](=O)[O-])cc2)cn1
27.5

Give reported MIC value for Nc1nccnc1C(=O)NN1C(=O)CSC1c1ccccc1 (stereo unspecified)
28

Give reported MIC value for O=C(NN1C(=O)CS[C@@H]1c1ccc(Cl)cc1)c1cnccn1
28.8

Give reported MIC value for NNC(=O)c1ccncc1
0.075

Give reported MIC value for CCOc1cc([C@H]2SCC(=O)N2NC(=O)c2nccnc2N)ccc1O
28.6

---

Below is a list of entries, each paired with its recorded inhibition (INH) value.
tested on: Mycolicibacterium smegmatis; assay: Antitubercular activity against dormant Mycobacterium smegmatis MC2 155 at 30 ug after 12 days by XTT-Menadione assay; format: functional, str. MC2 155
Reply with just the number (in %).

A selection of reference data follows.
>>> observed_value("Nc1nccnc1C(=O)NN1C(=O)CSC1c1ccc(O)cc1 (stereo not drawn)")
13.22
>>> observed_value("COc1ccc(C2SCC(=O)N2NC(=O)c2cnc(C)cn2)cc1 (stereo not drawn)")
27.97
>>> observed_value("COc1cc([C@@H]2SCC(=O)N2NC(=O)c2cnc(C)cn2)ccc1O")
-19.0256

Give reported inhibition (INH) value for CCOc1cc([C@H]2SCC(=O)N2NC(=O)c2nccnc2N)ccc1O
-15.9058

Give reported inhibition (INH) value for O=C(NN1C(=O)CS[C@@H]1c1ccc([N+](=O)[O-])cc1)c1cnccn1
9.803

Give reported inhibition (INH) value for O=C(NN1C(=O)CS[C@@H]1c1ccc(Cl)cc1)c1cnccn1
-1.593

Give reported inhibition (INH) value for CCOc1cc([C@@H]2SCC(=O)N2NC(=O)c2cnc(C)cn2)ccc1O
7.269

Give reported inhibition (INH) value for Cc1cnc(C(=O)NN2C(=O)CSC2c2ccc(O)cc2)cn1 (stereo not drawn)
7.295

Give reported inhibition (INH) value for O=C(NN1C(=O)CSC1c1ccc(O)cc1)c1cnccn1 (stereo not drawn)
45.5719

Give reported inhibition (INH) value for COc1ccc(C2SCC(=O)N2NC(=O)c2cnc(C)cn2)cc1OC (stereo not drawn)
9.358

Give reported inhibition (INH) value for Nc1nccnc1C(=O)NN1C(=O)CSC1c1ccccc1 (stereo not drawn)
-60.9565

Give reported inhibition (INH) value for Cc1cnc(C(=O)NN2C(=O)CS[C@@H]2c2cccc([N+](=O)[O-])c2)cn1
19.6

Give reported inhibition (INH) value for Cc1cnc(C(=O)NN2C(=O)CSC2c2ccc(Cl)cc2)cn1 (stereo not drawn)
-19.6759

Give reported inhibition (INH) value for Nc1nccnc1C(=O)NN1C(=O)CSC1c1ccc(F)cc1 (stereo not drawn)
37.72

Give reported inhibition (INH) value for Nc1nccnc1C(=O)NN1C(=O)CSC1c1ccc(Cl)cc1 (stereo not drawn)
52.67

Give reported inhibition (INH) value for Nc1nccnc1C(=O)NN1C(=O)CS[C@H]1c1ccc([N+](=O)[O-])cc1
-10.9967

Give reported inhibition (INH) value for Cc1cnc(C(=O)NN2C(=O)CS[C@H]2c2ccc(N(C)C)cc2)cn1
23.39

Give reported inhibition (INH) value for CN(C)c1ccc(C2SCC(=O)N2NC(=O)c2nccnc2N)cc1 (stereo not drawn)
-93.9118

Give reported inhibition (INH) value for Nc1nccnc1C(=O)NN1C(=O)CSC1c1cccc([N+](=O)[O-])c1 (stereo not drawn)
50.45
